Tested on: HCT-116 colon
Test: NCI-60 one-dose screen, 48 h (100 = growth as untreated, 0 = no growth, -100 = all killed)
Conditions: 10 µM unless noted
The panel holds about 83,000 compounds, 20% with a hit somewhere; the sample as a whole holds those more often.
measurement-label: growth (%)

compound | assay-result
CCN1CCN(c2nc(C)cc(NCc3cc(Nc4ccnc5cc(Cl)ccc45)ccc3F)n2)CC1 | 2.33
N#CCN1C(=O)C2C3=C(CCCC3)SC2N=C1CN1CCCC1 (stereo not given) | 94.2
CCn1c(C)nc2cc(C(N)=O)ccc21 | 94.6
CC(CCc1ccc(Cl)c(Cl)c1)NCc1ccc(C(C)(C)C)cc1 (stereo not given) | 79.1
CC/C=C\C/C=C\C[C@H](O)C/C=C1/C(=O)C=C[C@@H]1C/C=C\CCCC(=O)O | -61.1
COc1cccc(-c2nc3sccn3c2-c2ccnc(NCCNS(=O)(=O)c3ccc(C(F)(F)F)cc3)c2)c1 | 27.9
COC(=O)[C@]12CC[C@@H](C)[C@H](C)[C@@H]1C1=CC[C@@H]3[C@@]4(C)C(C=O)=C[C@@](C)(COC(=O)c5ccco5)[C@@H]4C(=O)C[C@@]3(C)[C@]1(C)CC2 | 12.6
CCCCCCCCCCCCCCCCCC1=NCCN1CCOC1=C(Cl)C(=O)c2ccccc2C1=O | 43.6
C=CCNc1nc(NN2C(=O)c3cccc4cccc(c34)C2=O)nc(-n2cnc3ccccc32)n1 | 79.8
Cc1occc1-c1n[nH]c(=S)n1N1C(=O)CSC1=S | 105
